B1: DLC1 (parent)
chain: AIQGISEKEKAEIEAKEACDWLRA

Variants of: B1
Test: protein stability index of a GFP-peptide fusion (GPS, HEK-293T) (PSI 1-6); higher = more stable;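 note: lentivirally expressed fusions sorted by FACS into six bins by GFP to DsRed ratio, PSI derived from sequencing read proportions per bin multiplied by bin number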
Conditions: c terminus: a fixed tail appended

{"variant spec": "R23W", "protein stability index": 4.91}
{"variant spec": "R23G", "protein stability index": 4.42}
{"variant spec": "L22D", "protein stability index": 5.49}
{"variant spec": "G4W", "protein stability index": 3.8}
{"variant spec": "K16Y", "protein stability index": 3.89}
{"variant spec": "E12V", "protein stability index": 4.17}
{"variant spec": "A11L", "protein stability index": 4.23}
{"variant spec": "K8A", "protein stability index": 3.75}
{"variant spec": "C19D", "protein stability index": 5.19}
{"variant spec": "A11T", "protein stability index": 4.67}
{"variant spec": "A18C", "protein stability index": 4.43}
{"variant spec": "K16G", "protein stability index": 4.35}
{"variant spec": "E14H", "protein stability index": 3.74}
{"variant spec": "Q3H", "protein stability index": 4.68}
{"variant spec": "K8N", "protein stability index": 3.88}
{"variant spec": "A15R", "protein stability index": 4.18}
{"variant spec": "E12P", "protein stability index": 4.63}
{"variant spec": "R23C", "protein stability index": 4.73}
{"variant spec": "I5Q", "protein stability index": 4.97}
{"variant spec": "E9K", "protein stability index": 3.97}
{"variant spec": "A1V", "protein stability index": 4.18}
{"variant spec": "C19S", "protein stability index": 4.6}
{"variant spec": "E17M", "protein stability index": 3.86}
{"variant spec": "E14T", "protein stability index": 4.34}
{"variant spec": "K8Q", "protein stability index": 4.3}
{"variant spec": "A24P", "protein stability index": 4.64}
{"variant spec": "A1M", "protein stability index": 4.09}
{"variant spec": "A24R", "protein stability index": 4.23}
{"variant spec": "E7I", "protein stability index": 3.63}
{"variant spec": "L22W", "protein stability index": 4.28}
{"variant spec": "A15T", "protein stability index": 3.76}
{"variant spec": "W21Q", "protein stability index": 5.47}
{"variant spec": "G4Y", "protein stability index": 3.73}
{"variant spec": "Q3W", "protein stability index": 3.58}
{"variant spec": "I2Q", "protein stability index": 4.79}
{"variant spec": "Q3G", "protein stability index": 4.33}
{"variant spec": "R23T", "protein stability index": 5.14}
{"variant spec": "I13S", "protein stability index": 4.85}
{"variant spec": "Q3A", "protein stability index": 4.83}
{"variant spec": "A1Y", "protein stability index": 3.71}
{"variant spec": "E7C", "protein stability index": 3.61}
{"variant spec": "C19E", "protein stability index": 5.65}
{"variant spec": "E9I", "protein stability index": 3.29}
{"variant spec": "I5K", "protein stability index": 4.71}
{"variant spec": "E17T", "protein stability index": 4.34}
{"variant spec": "E7F", "protein stability index": 3.44}
